tested on: HGGX6 (H3.3 G34R paediatric high-grade glioma line); assay: growth inhibition (% activity, log2 RLU normalised to DMSO / staurosporine); higher = more growth inhibition; settings: 33 µM
I'd be grateful if you could share measured growth inhibition for these entries.
// return numeric value only (unit: %, not printed)

# input Given `CC(C)(C)CC(C)(C)c1ccc(OCCOCC[N+](C)(C)Cc2ccccc2)cc1` , state its recorded growth inhibition.
# output 43.9

# input Recorded growth inhibition of `CCCC(=O)O[C@]1(C(=O)COC(C)=O)CC[C@H]2[C@@H]3C[C@H](F)C4=CC(=O)C=C[C@]4(C)[C@@]3(F)[C@@H](O)C[C@@]21C` , please.
# output 0.881

# input # query: growth inhibition of entry c1ccc2c(c1)CCCC2C1=NCCN1 (centres undefined)
# output 2.7

# input Request the reported growth inhibition associated with `CN(C)[C@@H](CCOc1cccc2ccccc12)c1ccccc1`
# output 0.0424

# input Entry under review: `CO[C@@H]1[C@@H](OC(N)=O)[C@@H](O)[C@H](Oc2ccc3c(O)c(NC(=O)c4ccc(O)c(CC=C(C)C)c4)c(=O)oc3c2C)OC1(C)C` . Reported growth inhibition?
# output -2.58

# input Bench note: what growth inhibition did `CCOC(=O)N1CCC(=C2c3ccc(Cl)cc3CCc3cccnc32)CC1` show?
# output 1.37

# input Which value of growth inhibition has been reported for `CCOC(=O)C1=C[C@]2(CC)CCCN3CCc4c(n1c1ccccc41)[C@@H]32` in the records?
# output -1.58

# input Would you kindly share the measured growth inhibition for `N=C(N)N/N=C/c1c(Cl)cccc1Cl` ?
# output 2.81

# input Need growth inhibition of CC(C(=O)O)c1cccc(C(=O)c2ccccc2)c1 (centres undefined) , thanks.
# output 0.639

# input Can you share its growth inhibition? I mean this compound: `CCCCOc1ccc(OCCCN2CCOCC2)cc1`
# output 7.63

# input Data request, read-out growth inhibition, for `O=C(O)C1=CO[C@@H](O[C@@H]2O[C@H](CO)[C@@H](O)[C@H](O)[C@H]2O)[C@@H]2C(CO)=CC[C@H]12`
# output -4.13

# input Please report the recorded growth inhibition for `O=c1c(-c2ccc(O)cc2)coc2cc(O)ccc12` .
# output -0.307

# input I am curious: what growth inhibition value has been reported for `Cc1ccc(C(=O)Nc2ccc(CN3CCN(C)CC3)c(C(F)(F)F)c2)cc1C#Cc1cnc2cccnn12` ?
# output 50

# input // query growth inhibition value for entry `CO[C@H]1C[C@@H]2CC[C@@H](C)[C@@](O)(O2)C(=O)C(=O)N2CCCC[C@H]2C(=O)O[C@H]([C@H](C)C[C@@H]2CC[C@@H](OC(=O)C(C)(CO)CO)[C@H](OC)C2)CC(=O)[C@H](C)/C=C(\C)[C@@H](O)[C@@H](OC)C(=O)[C@H](C)C[C@H](C)/C=C/C=C/C=C/1C`
# output 5.24

# input Entry under review: `N[C@@H](Cc1ccc(O)c(O)c1)C(=O)O` . Reported growth inhibition?
# output 1.4

# input # get_value(readout='growth inhibition', item= `Cc1ccc2c(Cl)cc(Cl)c(O)c2n1` )
# output 3.09

# input Looking for the measured growth inhibition of `c1cnc2cc3c(cc2n1)[C@@H]1CNC[C@H]3C1` , can you help?
# output 1.15

# input I am curious: what growth inhibition value has been reported for CCOCC(O)COc1ccc(NC(=O)CC[S+](C)C)cc1 (centres undefined) ?
# output -2.39

# input Can you share its growth inhibition? I mean this compound: `C[C@H](CS)C(=O)N1CCC[C@H]1C(=O)O`
# output -1.72

---

So I've got a bunch of compounds here, and I need their growth inhibition values.
test system: HGGX39 (paediatric high-grade glioma line); assay: growth inhibition (% activity, log2 RLU normalised to DMSO / staurosporine); higher = more growth inhibition; conditions: 33 µM
Field: value (include unit after the number)

# input Entry `Nc1nc2[nH]cnc2c(=S)[nH]1` : reported growth inhibition = ?
# output 25%

# input What value of measured growth inhibition is listed for `c1ccc2c(CC3=NCCN3)cccc2c1` ?
# output 4.23%

# input Can you look up the measured growth inhibition of Cc1nc2n(c(=O)c1CCN1CCC(c3noc4cc(F)ccc34)CC1)CCCC2O (stereo unspecified) for me?
# output 1.52%

# input State the recorded growth inhibition for this entry: `Cc1ccc(S(=O)(=O)NC(=O)NN2CCCCCC2)cc1`
# output 0.24%

# input Which growth inhibition reading was recorded for the compound `CCOC(=O)N1CCC(=C2c3ccc(Cl)cc3CCc3cccnc32)CC1` ?
# output 1.57%

# input Item CN1CCN2c3ccccc3Cc3ccccc3C2C1 (stereo unspecified) has what recorded growth inhibition?
# output 2.14%

---

tested on: HNSC; experiment: growth inhibition (% activity, log2 RLU normalised to DMSO / staurosporine); higher = more growth inhibition; conditions: 33 µM
Exercise: for every item that follows, state its recorded growth inhibition.
Give your result in % as a bare value.

# input Entry `CC(=O)O[C@H]1C[C@@H]2CC[C@@H]3[C@H](CC[C@@]4(C)[C@H]3C[C@H]([N+]3(C)CCCCC3)[C@@H]4OC(C)=O)[C@@]2(C)C[C@@H]1N1CCCCC1` has what growth inhibition?
# output 1.96

# input Give its growth inhibition value. Item: `CC(=O)O[C@H]1CC[C@@]2(C)C(=CC[C@@H]3[C@@H]2CC[C@]2(C)C(c4cccnc4)=CC[C@@H]32)C1`
# output -1.27

# input Entry `CCOC(=O)c1ccc(C#Cc2ccc3c(c2)C(C)(C)CCS3)nc1` : reported growth inhibition = ?
# output 6.59

# input Requested field: growth inhibition. Item: `NCCS`
# output 0.969

# input So what's the measured growth inhibition for this one? CCCCC(CC)CN=C(N)N=C(N)NCCCCCCNC(N)=NC(N)=NCC(CC)CCCC (centres undefined)
# output 67.8

# input Which growth inhibition value belongs to `O=C(O)c1cn(-c2ccc(F)cc2)c2cc(N3CCNCC3)c(F)cc2c1=O` ?
# output 1.3

# input What value of measured growth inhibition is listed for `CC(=O)OCC(=O)[C@H]1CC[C@H]2[C@@H]3CCC4=CC(=O)CC[C@]4(C)[C@H]3CC[C@]12C` ?
# output -2.47

# input If you can, please state the reported growth inhibition value of `O=C(NCCO[N+](=O)[O-])c1cccnc1` .
# output 46.8

# input // lookup growth inhibition for `CC1=C(/C=C/C(C)=C/C=C/C(C)=C/C=C/C=C(C)/C=C/C=C(C)/C=C/C2=C(C)CCCC2(C)C)C(C)(C)CCC1`
# output -2.5

# input Entry under review: `CCN[C@H]1CN(CCCOC)S(=O)(=O)c2sc(S(N)(=O)=O)cc21` . Reported growth inhibition?
# output -0.529

# input For the molecule `CC(C)C[C@H](NC(=O)[C@H](Cc1ccccc1)NC(=O)c1cnccn1)B(O)O` , what growth inhibition is on record?
# output 64.2

# input // returns reported growth inhibition for input `CC(C)[C@H]1CC[C@H](C(=O)N[C@H](Cc2ccccc2)C(=O)O)CC1`
# output -0.0956

# input Bench note: what growth inhibition did `CC(=O)O[C@@]12CO[C@@H]1C[C@H](O)[C@@]1(C)C(=O)[C@H](O)C3=C(C)[C@@H](OC(=O)[C@H](O)[C@@H](NC(=O)OC(C)(C)C)c4ccccc4)C[C@@](O)([C@@H](OC(=O)c4ccccc4)[C@H]21)C3(C)C` show?
# output 55.1

# input Field request: growth inhibition | item: `CC(C)C(=O)Nc1ccc([N+](=O)[O-])c(C(F)(F)F)c1`
# output 6.29

# input Quick one: growth inhibition of `COC(=O)Nc1nc2cc(C(=O)c3ccc(F)cc3)ccc2[nH]1` ?
# output 63.6

# input Consider the molecule `CCc1cc2c(cc1CC)CC(NC[C@H](O)c1ccc(O)c3[nH]c(=O)ccc13)C2` and give its measured growth inhibition.
# output 23.5

# input For the molecule shown here, `C[C@]12C=CC(=O)C=C1CC[C@@H]1[C@@H]2C(=O)C[C@@]2(C)[C@H]1CC[C@]2(O)C(=O)CO` , give the reported growth inhibition.
# output -4.28

# input Which measured growth inhibition value corresponds to `CCN1CCN(c2cc(-c3ccc(F)cc3)c3c(n2)CCCCCC3)CC1` ?
# output 5

# input Please report the recorded growth inhibition for `C[C@@H](O)[C@H]1C(=O)N2C(C(=O)O)=C(S[C@@H]3CN[C@H](CNS(N)(=O)=O)C3)[C@H](C)[C@H]12` .
# output 28.8

---

tested on: DIPGX37 (H3.3 K27M diffuse intrinsic pontine glioma line); assay: growth inhibition (% activity, log2 RLU normalised to DMSO / staurosporine); higher = more growth inhibition; details: 33 µM
property-measured: growth inhibition (%)
Report as a plain number; the unit % is understood.

# input What reported growth inhibition corresponds to `Cc1c(C(=O)NN2CCCCC2)nn(-c2ccc(Cl)cc2Cl)c1-c1ccc(Cl)cc1` on DIPGX37?
# output -0.227

# input Give growth inhibition (DIPGX37) of the following compound: `C#C[C@]1(O)CC[C@H]2[C@@H]3CCC4=CC(=O)CC[C@@H]4[C@H]3CC[C@@]21C`
# output 3.5

# input Look up growth inhibition with DIPGX37 for this compound: `C[C@H](CCC(=O)O)[C@H]1CC[C@H]2[C@@H]3CC[C@@H]4C[C@H](O)CC[C@]4(C)[C@H]3CC[C@]12C`
# output -0.978

# input What is its growth inhibition for DIPGX37? Entry: `C[C@@H]1C[C@H]2[C@@H]3C[C@H](F)C4=CC(=O)C=C[C@]4(C)[C@@]3(F)[C@@H](O)C[C@]2(C)[C@@]1(O)C(=O)CO`
# output 5.42

# input Can you look up growth inhibition on DIPGX37 for `COc1nc(N)nc2c1ncn2[C@@H]1O[C@H](CO)[C@@H](O)[C@@H]1O` ?
# output -1.39

# input Form field - read-out: growth inhibition; system: DIPGX37; submitted item: `O=C([O-])CC(O)(CC(=O)[O-])C(=O)[O-].O=C([O-])CC(O)(CC(=O)[O-])C(=O)[O-].[Bi+3].[K+].[K+].[K+].[K+].[K+]`
# output -0.559

# input Quick check: growth inhibition on DIPGX37, item Clc1ccc(CCC(Cn2ccnc2)Sc2c(Cl)cccc2Cl)cc1 (stereo not given) ?
# output 1.97

# input Lab request: please report growth inhibition under test system DIPGX37 for `CCCS(=O)(=O)Nc1ccc(F)c(C(=O)c2c[nH]c3ncc(-c4ccc(Cl)cc4)cc23)c1F`
# output 1.21

# input Value wanted: growth inhibition (DIPGX37) of entry `CS(=O)(=O)Nc1ccc([N+](=O)[O-])cc1Oc1ccccc1`
# output 1.17

# input Please state recorded growth inhibition (tested on DIPGX37) of `NC[C@H]1CC[C@H](C(=O)O)CC1`
# output 1.11
